This collection of values is drawn from paper PMC3404088.

- TARGET_ENTITY: T1, Aβ1–42 fibrils (UniProt P05067 672-713)
- T1 construct: amyloid-β peptide Aβ1–42, cut from the amyloid precursor protein (APP), in fibrillar form; Aggregated (fibrillar) state of the same peptide as m15; also called fibrillar Aß1–42; Aβ fibrils; source: bought: JPT Biotech or Bachem AG (HPLC purified peptide); fibrils formed at 37°C (7 days in PBS pH 7.4 for SPR; five days in 50 mM Tris-HCl pH 7.4 for ELISA)
- PROTOCOL_DETAILS: SPR; Biacore T100, single-cycle mode, 25°C; Aβ1–42 fibrils immobilised on a CM5 chip by amine coupling; PBS pH 7.4, 30 µl/min; 100 to 62500 nM in fivefold steps, 60 s each; heterogeneous ligand model
- CONDITION_CONTEXT: both partners purified
Square brackets hold non-standard residues; d marks the D form. Primed or numbered codes have the meaning given here. Ends that are not written are not given here. FITC′ = fluorescein isothiocyanate (ϕ)
Please respond with reported k off1 (heterogeneous ligand model, site 1) for every item in the list.

Example binders with recorded k off1 (heterogeneous ligand model, site 1):
BINDER | TEST_RESULT
[dS][dH][dY][dR][dH][dI][dS][dP][dA][dQ][dK][dK](FITC′) (D-enantiomeric derivative of ACI-80 (D1): N-terminal glutamine deleted (Q1X), V12K, added C-terminal lysine; also called D1-Q1X-V12K-Kϕ; source: synthetic peptide (JPT Peptide Technologies GmbH, Berlin)) [ACI-88-Kϕ] | 0.00722
[dQ][dS][dH][dY][dR][dH][dI][dS][dP][dA][dQ][dV][dK](FITC′) (D-enantiomeric peptide ACI-80 (D1), selected by mirror image phage display on aggregated Aβ1–42, with an added C-terminal lysine; also called D1-Kϕ; source: synthetic peptide (JPT Peptide Technologies GmbH, Berlin)) [ACI-80-Kϕ] | 0.0252
[dQ][dS][dH][dY][dR][dH][dI][dS][dP][dA][dQ][dK][dK](FITC′) (D-enantiomeric derivative of ACI-80 (D1): V12K, added C-terminal lysine; also called D1-V12K-Kϕ; source: synthetic peptide (JPT Peptide Technologies GmbH, Berlin)) [ACI-87-Kϕ] | 0.00184

Now consider the entry below.
Req: // query k off1 (heterogeneous ligand model, site 1) value for entry [dP][dS][dH][dY][dR][dH][dI][dS][dP][dA][dQ][dK][dK](FITC′) (D-enantiomeric derivative of ACI-80 (D1): Q1P, V12K, added C-terminal lysine; also called D1-Q1P-V12K-Kϕ; source: synthetic peptide (JPT Peptide Technologies GmbH, Berlin)) [ACI-89-Kϕ]
Resp: 0.162
